# ASSAYED_SYSTEM: M-phase inducer phosphatase 2 (Homo sapiens, UniProt P30305)
# MEASUREMENT_NOTES: Inhibitory activity against human Cdc25B phosphatase
# APPLIED_CONDITIONS: read-out: IC50
pIC50 reference
Please keep in mind that pIC50 is minus log10 of the molar concentration; only the number is needed.

In the examples that follow, each entry is paired with its recorded pIC50.
mol_smiles=CC(=O)Nc1ccc(SC2=C(C(C)C)C(=O)C(=O)c3ccccc32)cc1 observed=4.86
mol_smiles=CC(C)C1=C(Sc2ccc(F)cc2)c2ccccc2C(=O)C1=O observed=5.12
mol_smiles=CC(C)C1=C(c2ccccc2)c2ccc3c(c2C(=O)C1=O)CCCC3(C)C observed=5.50
mol_smiles=CC(C)C1=C(Nc2ccc([N+](=O)[O-])cc2)c2ccccc2C(=O)C1=O observed=5.27
mol_smiles=CC(C)C1=C(Nc2ccccc2)c2ccc3c(c2C(=O)C1=O)CCCC3(C)C observed=5.40

IN: Form entry - test system: M-phase inducer phosphatase 2 (Homo sapiens, UniProt P30305); read-out: pIC50; compound: CC(C)C1=C(Sc2ccc(Br)cc2)c2ccccc2C(=O)C1=O
OUT: 5.44

IN: Now give it for CC(C)C1=Cc2ccccc2C(=O)C1=O too.
OUT: 4.62

IN: Now give it for COc1ccc(NC2=C(C(C)C)C(=O)C(=O)c3ccccc32)cc1 too.
OUT: 5.33

====

# ASSAYED_SYSTEM: M-phase inducer phosphatase 1 (Homo sapiens, UniProt P30304)
# Sequence (P30304 whole entry): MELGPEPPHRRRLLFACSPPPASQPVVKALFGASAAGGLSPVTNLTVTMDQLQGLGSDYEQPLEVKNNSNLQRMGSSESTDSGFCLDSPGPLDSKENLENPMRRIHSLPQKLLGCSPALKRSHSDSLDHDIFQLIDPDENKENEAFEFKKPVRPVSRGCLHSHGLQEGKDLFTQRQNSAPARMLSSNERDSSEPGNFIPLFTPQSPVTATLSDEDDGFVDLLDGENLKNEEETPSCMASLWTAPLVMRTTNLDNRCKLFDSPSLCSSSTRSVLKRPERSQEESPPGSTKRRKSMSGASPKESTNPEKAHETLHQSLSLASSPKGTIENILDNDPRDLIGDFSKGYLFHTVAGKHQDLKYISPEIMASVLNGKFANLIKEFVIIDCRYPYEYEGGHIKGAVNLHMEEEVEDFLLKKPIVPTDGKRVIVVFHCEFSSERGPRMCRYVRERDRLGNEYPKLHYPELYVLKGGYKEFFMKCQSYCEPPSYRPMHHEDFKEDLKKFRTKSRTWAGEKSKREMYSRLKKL
# MEASUREMENT_NOTES: Inhibitory activity against human Cdc25A phosphatase
# APPLIED_CONDITIONS: read-out: IC50
pIC50 reference
Please keep in mind that pIC50 is minus log10 of the molar concentration; only the number is needed.

In the examples that follow, each entry is paired with its recorded pIC50.
mol_smiles=CC(C)C1=C(c2ccccc2)c2ccc3c(c2C(=O)C1=O)CCCC3(C)C observation_type=pIC50 observed=5.40
mol_smiles=CC(C)C1=C(Sc2ccc(F)cc2)c2ccc3c(c2C(=O)C1=O)CCCC3(C)C observation_type=pIC50 observed=4.66
mol_smiles=CC(C)C1=C(Nc2ccccc2)c2ccccc2C(=O)C1=O observation_type=pIC50 observed=4.96
mol_smiles=Cc1ccc(NC2=C(C(C)C)C(=O)C(=O)c3c2ccc2c3CCCC2(C)C)cc1 observation_type=pIC50 observed=4.56

Would you kindly look at the next entry?
IN: For the molecule COc1ccc(NC2=C(C(C)C)C(=O)C(=O)c3c2ccc2c3CCCC2(C)C)cc1 , what pIC50 is on record?
OUT: 4.93

====

# ASSAYED_SYSTEM: M-phase inducer phosphatase 2 (Homo sapiens)
# Sequence (P30305 whole entry): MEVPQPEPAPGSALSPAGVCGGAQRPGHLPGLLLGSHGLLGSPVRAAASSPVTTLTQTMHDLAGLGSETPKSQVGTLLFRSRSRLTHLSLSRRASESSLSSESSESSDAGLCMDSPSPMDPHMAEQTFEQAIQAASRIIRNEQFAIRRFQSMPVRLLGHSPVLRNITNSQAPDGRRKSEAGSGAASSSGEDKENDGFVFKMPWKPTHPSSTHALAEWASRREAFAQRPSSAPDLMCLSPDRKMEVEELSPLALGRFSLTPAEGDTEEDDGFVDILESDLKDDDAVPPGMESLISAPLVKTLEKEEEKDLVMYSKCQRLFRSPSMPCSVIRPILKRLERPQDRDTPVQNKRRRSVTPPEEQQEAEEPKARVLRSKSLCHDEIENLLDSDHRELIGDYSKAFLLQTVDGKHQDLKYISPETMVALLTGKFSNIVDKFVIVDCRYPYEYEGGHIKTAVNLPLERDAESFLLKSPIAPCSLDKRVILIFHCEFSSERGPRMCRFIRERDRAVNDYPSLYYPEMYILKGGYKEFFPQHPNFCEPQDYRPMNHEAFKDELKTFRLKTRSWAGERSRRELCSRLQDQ
# MEASUREMENT_NOTES: Inhibitory activity against human Cdc25B phosphatase
# APPLIED_CONDITIONS: read-out: IC50
pIC50 reference
Please keep in mind that pIC50 is minus log10 of the molar concentration; only the number is needed.

mol_smiles=CC(C)C1=C(Sc2ccccc2)c2ccc3c(c2C(=O)C1=O)CCCC3(C)C observation_type=pIC50 observed=5.29
mol_smiles=CC(C)C1=C(Sc2ccc(Br)cc2)c2ccc3c(c2C(=O)C1=O)CCCC3(C)C observation_type=pIC50 observed=5.42
mol_smiles=COc1ccc(NC2=C(C(C)C)C(=O)C(=O)c3c2ccc2c3CCCC2(C)C)cc1 observation_type=pIC50 observed=5.39
mol_smiles=CC(C)C1=C(Sc2ccccc2)c2ccccc2C(=O)C1=O observation_type=pIC50 observed=4.96
mol_smiles=CC(C)C1=C(Nc2ccccc2)c2ccccc2C(=O)C1=O observation_type=pIC50 observed=5.06

IN: For the compound CC(=O)Nc1ccc(SC2=C(C(C)C)C(=O)C(=O)c3c2ccc2c3CCCC2(C)C)cc1 , what pIC50 is on record?
OUT: 5.31

IN: Now give it for CC(C)C1=C(c2ccccc2)c2ccccc2C(=O)C1=O too.
OUT: 5.49

====

IC50 reference
# ASSAYED_SYSTEM: UniProt:P30304
# MEASUREMENT_NOTES: Inhibitory activity against human Cdc25A phosphatase
# APPLIED_CONDITIONS: read-out: IC50
Provide only the numeric value, understood in µM.

In the examples that follow, each entry is paired with its recorded IC50.
mol_smiles=CC(=O)Nc1ccc(SC2=C(C(C)C)C(=O)C(=O)c3ccccc32)cc1 observed=21.9
mol_smiles=CC(C)C1=Cc2ccccc2C(=O)C1=O observed=11.2
mol_smiles=CC(C)C1=C(Sc2ccccc2)c2ccc3c(c2C(=O)C1=O)CCCC3(C)C observed=3.97
mol_smiles=Cc1ccc(NC2=C(C(C)C)C(=O)C(=O)c3ccccc32)cc1 observed=7.06
mol_smiles=CC(C)C1=C(Sc2ccc(F)cc2)c2ccccc2C(=O)C1=O observed=12.8

IN: Form entry - test system: UniProt:P30304; read-out: IC50; compound: COc1ccc(NC2=C(C(C)C)C(=O)C(=O)c3ccccc32)cc1
OUT: 4.9

IN: Now give it for CC(C)C1=C(Sc2ccc(Br)cc2)c2ccccc2C(=O)C1=O too.
OUT: 5.43

IN: Now give it for CC(C)C1=C(Sc2ccccc2)c2ccccc2C(=O)C1=O too.
OUT: 5.86

IN: Now give it for CC(C)C1=C(Sc2ccc(Br)cc2)c2ccc3c(c2C(=O)C1=O)CCCC3(C)C too.
OUT: 20.3

IN: Now give it for CC(C)C1=C(Nc2ccccc2)c2ccc3c(c2C(=O)C1=O)CCCC3(C)C too.
OUT: 8.81

IN: Now give it for CC(C)C1=C(c2ccccc2)c2ccccc2C(=O)C1=O too.
OUT: 7.83

IN: Now give it for CC(=O)Nc1ccc(SC2=C(C(C)C)C(=O)C(=O)c3c2ccc2c3CCCC2(C)C)cc1 too.
OUT: 5.96

IN: Now give it for CC(C)C1=C(Nc2ccc([N+](=O)[O-])cc2)c2ccccc2C(=O)C1=O too.
OUT: 6.87

====

# ASSAYED_SYSTEM: M-phase inducer phosphatase 2 (Homo sapiens)
# MEASUREMENT_NOTES: Inhibitory activity against human Cdc25B phosphatase
# APPLIED_CONDITIONS: read-out: IC50
IC50 reference
Field note: include the unit after the figure.

In the examples that follow, each entry is paired with its recorded IC50.
mol_smiles=CC(C)C1=C(Sc2ccc(F)cc2)c2ccc3c(c2C(=O)C1=O)CCCC3(C)C assayed_system="M-phase inducer phosphatase 2 (Homo sapiens)" observed="2.58 µM"
mol_smiles=Cc1ccc(NC2=C(C(C)C)C(=O)C(=O)c3ccccc32)cc1 assayed_system="M-phase inducer phosphatase 2 (Homo sapiens)" observed="4.53 µM"

Would you kindly look at the next entry?
IN: For the compound Cc1ccc(NC2=C(C(C)C)C(=O)C(=O)c3c2ccc2c3CCCC2(C)C)cc1 , what IC50 is on record?
OUT: 7.54 µM
